assay: Ascending multiple dose pharmacokinetics of enteric coated capsules in schizophrenic patients; format: in vivo, human; conditions: human, plasma, po, 250 mg, Schizophrenia patients, single oral dose 250 mg, day 1; read-out: Cmax (Mean)
ASSAY_ENDPOINT: Cmax (ng/mL)
Provide only the numeric value, understood in ng/mL.

Summary for this molecule, Cl.c1cc2c3c(c1)[C@H]1CCC[C@H]1CN3CCNC2 [Compound A.HCl] : Cmax is 8.89

---

assay: Ascending multiple dose pharmacokinetics of enteric coated capsules in schizophrenic patients; assay type: in vivo, human; settings: human, plasma, po, 150 mg, Schizophrenia patients, single oral dose 150 mg, day 1; read-out: Tmax (Geom. Mean)
ASSAY_ENDPOINT: Tmax (h)
Note: unit h is implicit; provide only the numeric part.

The value of Tmax measured for the molecule Cl.c1cc2c3c(c1)[C@H]1CCC[C@H]1CN3CCNC2 [Compound A.HCl] turned out to be 4.2

---

assay: Ascending multiple dose pharmacokinetics of enteric coated capsules in schizophrenic patients; type: in vivo, human; conditions: human, plasma, po, 150 mg, Schizophrenia patients, single oral dose 150 mg, day 1; read-out: AUC0-∞ (Geom. Mean)
ASSAY_ENDPOINT: AUC(0-inf) (ng·h/mL)
Use ng·h/mL as the unit, but write only the number.

// AUC(0-inf) value for Cl.c1cc2c3c(c1)[C@H]1CCC[C@H]1CN3CCNC2 [Compound A.HCl] : 34

---

assay: Ascending multiple dose pharmacokinetics of enteric coated capsules in healthy subjects; format: in vivo, human; conditions: human, plasma, oral, single dose; read-out: mean elimination t1/2
ASSAY_ENDPOINT: half-life

response.value for Cl.c1cc2c3c(c1)[C@H]1CCC[C@H]1CN3CCNC2 [Compound A.HCl] (field: half-life) = 8 to 11 h

---

test: Ascending multiple dose pharmacokinetics of enteric coated capsules in healthy subjects; assay type: in vivo, human; details: human, plasma, po, 75 mg, healthy subjects, single oral dose 75 mg, day 1; read-out: Cmax (Mean)
ASSAY_ENDPOINT: Cmax
Remember to follow the number with its unit.

Entry Cl.c1cc2c3c(c1)[C@H]1CCC[C@H]1CN3CCNC2 [Compound A.HCl] ; Cmax = 1.6 ng/mL

---

Assay: Ascending multiple dose pharmacokinetics of enteric coated capsules in healthy subjects
Type: in vivo, human
Details: human, plasma, po, 75 mg, healthy subjects, multiple oral doses (q12 h) 75 mg, day 14; read-out: t1/2 (Geom. Mean) (converted)
Method: Ascending multiple doses of 25, 50, 75, 100, 150, and 250 mg Compound A.HCl were administered as twice-daily regimen (q12h) for 14 days in cohorts of 8 healthy subjects (6 active and 2 placebo). Blood samples for Compound A.HCl analysis were obtained on days 1 and 14 within 2 hours of test article administration and at various time points from 0.5 to 48 hours after test article administration. Doses were administered orally after an overnight fast of at least 10 hours on these 2 days. […]
ASSAY_ENDPOINT: half-life (h)
Your answer is read as h, so omit the unit and give the number.

half-life in this record for Cl.c1cc2c3c(c1)[C@H]1CCC[C@H]1CN3CCNC2 [Compound A.HCl] : 6.38

---

experiment: Ascending multiple dose pharmacokinetics of enteric coated capsules in schizophrenic patients; assay type: in vivo, human; conditions: human, plasma, po, 250 mg, Schizophrenia patients, single oral dose 250 mg, day 1; read-out: t1/2 (Geom. Mean) (converted)
ASSAY_ENDPOINT: half-life
Please answer in the form of a number followed by its unit of measurement.

Entry under test: Cl.c1cc2c3c(c1)[C@H]1CCC[C@H]1CN3CCNC2 [Compound A.HCl] . Its half-life was 7.74 h
